B1: FAM46D (parent)
chain: LELKFVSSLRRQFEFSVDSFQIVL

Variants of: B1
protocol: protein stability index of a GFP-peptide fusion (GPS, HEK-293T) (PSI 1-6); higher = more stable;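 further: lentivirally expressed fusions sorted by FACS into six bins by GFP to DsRed ratio, PSI derived from sequencing read proportions per bin multiplied by bin number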
measurement context: c terminus: a fixed tail appended
Record Fulfilled whenever protein stability index is at 2 or higher; record Not fulfilled when lower.

Look over these answered cases.
item sequence	class
LDLKFVSSLRRQFEFSVDSFQIVL [E2D]	Fulfilled
LELKFVSSLRMQFEFSVDSFQIVL [R11M]	Fulfilled
LENKFVSSLRRQFEFSVDSFQIVL [L3N]	Fulfilled
LELKFVSSLRRQFEFSVDSFQHVL [I22H]	Not fulfilled

Could you please find out whether LELKFVSSLRRQFEFSVMSFQIVL [D18M] has protein stability index that meets 2 or exceeds it?
Fulfilled

Could you please find out whether LELKFDSSLRRQFEFSVDSFQIVL [V6D] has protein stability index that meets 2 or exceeds it?
Fulfilled

Could you please find out whether LELKFVSSLRRQSEFSVDSFQIVL [F13S] has protein stability index that meets 2 or exceeds it?
Fulfilled

Could you please find out whether LELKFVSSLRRQFEFSVDIFQIVL [S19I] has protein stability index that meets 2 or exceeds it?
Fulfilled
